Experiment: Cytotoxicity against human MT4 cells assessed as reduction in cell viability incubated for 5 to 7 days by MTT assay
Type: toxicity, cell-based
Settings: time 5-7 day
Would you mind telling me the reported CC50 of each entry?
Report the figure in µM without appending any unit label.

Request: Need CC50, item `Cc1cc(C)cc(S(=O)(=O)c2c(C(=O)NC3CC4(CCNCC4)C3)[nH]c3ccc(Cl)cc23)c1`
Response: 24.2

Request: Which CC50 is listed for `Cc1cc(C)cc(S(=O)(=O)c2c(C(=O)NC3CC4(CCN(CC(N)=O)CC4)C3)[nH]c3ccc(Cl)cc23)c1` ?
Response: 3.61

Request: What value of measured CC50 is listed for `Cc1cc(C)cc(S(=O)(=O)c2c(C(=O)NC3CC4(CCN(C(=O)OC(C)(C)C)CC4)C3)[nH]c3ccc(Cl)cc23)c1` ?
Response: 133

Request: Any idea what its CC50 is? The compound is `Cc1cc(C)cc(S(=O)(=O)c2c(C(=O)NC3CC4(C3)CN(Cc3n[nH]c(=O)n3C)C4)[nH]c3ccc(Cl)cc23)c1`
Response: 65.6

Request: Which CC50 reading was recorded for the compound `Cc1cc(C)cc(S(=O)(=O)c2c(C(=O)NC3CC4(CNC4)C3)[nH]c3ccc(Cl)cc23)c1` ?
Response: 28.6

Request: Endpoint output: CC50 of Cc1cc(C)cc(S(=O)(=O)c2c(C(=O)NC3CC4(CCN(S(C)(=O)=O)C4)C3)[nH]c3ccc(Cl)cc23)c1 (stereo unspecified) . Value?
Response: 205

Request: Data request, read-out CC50, for `Cc1cc(C)cc(S(=O)(=O)c2c(C(=O)NC3CC4(CCN(Cc5n[nH]c(=O)n5C)CC4)C3)[nH]c3ccc(Cl)cc23)c1`
Response: 178

Request: Fill in the blank: the reported CC50 of Cc1cc(C)cc(S(=O)(=O)c2c(C(=O)NC3CC4(CCN(C(=O)OC(C)(C)C)C4)C3)[nH]c3ccc(Cl)cc23)c1 (stereo unspecified) is ____.
Response: 171

Request: Query (compound): Cc1cc(C)cc(S(=O)(=O)c2c(C(=O)NC3CC4(CCNC4)C3)[nH]c3ccc(Cl)cc23)c1 (stereo unspecified) ; field requested: CC50
Response: 25.2

----------
Assay: Cytotoxicity against human MT4 cells assessed as reduction in cell viability incubated for 5 to 7 days by MTT assay
Format: toxicity, cell-based
Settings: time 5-7 day
resultType: CC50 (µM)
Express it in µM; write the number only.

Request: Fill in the blank: the reported CC50 of Cc1cc(C)cc(S(=O)(=O)c2c(C(=O)NC3CC4(CCN(CC(N)=O)C4)C3)[nH]c3ccc(Cl)cc23)c1 (stereo not drawn) is ____.
Response: 3.7

Request: So what does the record say about CC50 for `Cc1cc(C)cc(S(=O)(=O)c2c(C(=O)NC3CC4(C3)CN(CC(N)=O)C4)[nH]c3ccc(Cl)cc23)c1` ?
Response: 6.08

----------
Tested on: Human immunodeficiency virus 1
Experiment: Antiviral activity against HIV-1 harboring K103N mutant infected in human MT4 cells assessed as reduction in virus induced cytotoxicity incubated for 5 to 7 days by MTT assay
Assay type: functional, organism-based
Details: Human immunodeficiency virus 1, MT4
resultType: pEC50
Scale for pEC50: -log10 of concentration given in mol/L; no unit attached.

Request: Which pEC50 value is on record for `O=C1Nc2ccc(Cl)cc2[C@@](C#CC2CC2)(C(F)(F)F)O1` ?
Response: 7.01

Request: Form field: reported pEC50 of Cc1cc(C)cc(S(=O)(=O)c2c(C(=O)NC3CC4(CCN(CC(N)=O)C4)C3)[nH]c3ccc(Cl)cc23)c1 (centres undefined)
Response: 6.72

Request: If you can, please state the reported pEC50 value of `Cc1cc(C)cc(S(=O)(=O)c2c(C(=O)NC3CC4(CCN(S(C)(=O)=O)CC4)C3)[nH]c3ccc(Cl)cc23)c1` .
Response: 6.36

Request: Any idea what pEC50 was measured for `Cc1cc(C)cc(S(=O)(=O)c2c(C(N)=O)[nH]c3ccc(Cl)cc23)c1` ?
Response: 7.77

----------
Would you mind telling me the reported EC50 of each entry?
Tested on: Human immunodeficiency virus 1
Test: Antiviral activity against HIV-1 harboring Y181C mutant infected in human MT4 cells assessed as reduction in virus induced cytotoxicity incubated for 5 to 7 days by MTT assay
Format: functional, organism-based
Settings: Human immunodeficiency virus 1, MT4
The answer is to be given in µM; state only the numeric part.

Request: Reported EC50 for Human immunodeficiency virus 1, given Cc1ccnc2c1NC(=O)c1cccnc1N2C1CC1 [NEVIRAPINE] ?
Response: 3.79

Request: Give Human immunodeficiency virus 1 EC50 for `Cc1cc(C)cc(S(=O)(=O)c2c(C(N)=O)[nH]c3ccc(Cl)cc23)c1`
Response: 0.039

Request: Observed EC50 on Human immunodeficiency virus 1 for `Cc1cc(C)cc(S(=O)(=O)c2c(C(=O)NC3CC4(C3)CN(CC(N)=O)C4)[nH]c3ccc(Cl)cc23)c1` , please.
Response: 0.39

Request: What value of EC50 on Human immunodeficiency virus 1 does `Cc1cc(C)cc(S(=O)(=O)c2c(C(=O)NC3CC4(CCN(Cc5n[nH]c(=O)n5C)CC4)C3)[nH]c3ccc(Cl)cc23)c1` have?
Response: 0.94

----------
Would you kindly list EC50 for each of these compounds?
Test system: Human immunodeficiency virus 1
Experiment: Antiviral activity against HIV-1 harboring Y188L mutant infected in human MT4 cells assessed as reduction in virus induced cytotoxicity incubated for 5 to 7 days by MTT assay
Assay type: functional, organism-based
Settings: Human immunodeficiency virus 1, MT4
State just the number; it will be interpreted in nM.

Request: Quick one: EC50 for `Cc1cc(C)cc(S(=O)(=O)c2c(C(=O)NC3CC4(C3)CN(S(C)(=O)=O)C4)[nH]c3ccc(Cl)cc23)c1` ?
Response: 1760

Request: // query EC50 value for entry `Cc1cc(C)cc(S(=O)(=O)c2c(C(N)=O)[nH]c3ccc(Cl)cc23)c1`
Response: 1100

Request: Need EC50, item Cc1cn([C@H]2C[C@H](N=[N+]=[N-])[C@@H](CO)O2)c(=O)[nH]c1=O [ZIDOVUDINE]
Response: 4

Request: Can you share its EC50? I mean this compound: `Cc1cc(C)cc(S(=O)(=O)c2c(C(=O)NC3CC4(C3)CN(CC(N)=O)C4)[nH]c3ccc(Cl)cc23)c1`
Response: 1280

Request: State the recorded EC50 for this entry: Cc1cc(C#N)cc(C)c1Oc1nc(Nc2ccc(C#N)cc2)nc(N)c1Br [ETRAVIRINE]
Response: 15

Request: Record request: EC50 value, item Cc1cc(C)cc(S(=O)(=O)c2c(C(=O)NC3CC4(CCN(CC(N)=O)C4)C3)[nH]c3ccc(Cl)cc23)c1 (centres undefined)
Response: 1420

Request: What value of measured EC50 is listed for `Cc1cc(C)cc(S(=O)(=O)c2c(C(=O)NC3CC4(C3)CN(Cc3n[nH]c(=O)n3C)C4)[nH]c3ccc(Cl)cc23)c1` ?
Response: 560

Request: Please give the measured EC50 for this compound: Cc1cc(C)cc(S(=O)(=O)c2c(C(=O)NC3CC4(CCN(Cc5n[nH]c(=O)n5C)C4)C3)[nH]c3ccc(Cl)cc23)c1 (centres undefined)
Response: 1460

Request: For Cc1cc(C)cc(S(=O)(=O)c2c(C(=O)NC3CC4(CCN(S(C)(=O)=O)C4)C3)[nH]c3ccc(Cl)cc23)c1 (centres undefined) , what is its reported EC50?
Response: 1930

Request: // query EC50 value for entry Cc1ccnc2c1NC(=O)c1cccnc1N2C1CC1 [NEVIRAPINE]
Response: 4420

Request: Would you mind telling me what EC50 value was observed for `Cc1cc(C)cc(S(=O)(=O)c2c(C(=O)NC3CC4(CCN(Cc5n[nH]c(=O)n5C)CC4)C3)[nH]c3ccc(Cl)cc23)c1` ?
Response: 8070

Request: Would you mind telling me what EC50 value was observed for O=C1Nc2ccc(Cl)cc2[C@@](C#CC2CC2)(C(F)(F)F)O1 [EFAVIRENZ] ?
Response: 89

Request: I have this compound here, `Cc1cc(C)cc(S(=O)(=O)c2c(C(=O)NC3CC4(CCN(CC(N)=O)CC4)C3)[nH]c3ccc(Cl)cc23)c1` , and I need its recorded EC50.
Response: 1290

----------
Task for the reader: assign each of the following compounds its reported pEC50.
System: Human immunodeficiency virus 1
Test: Antiviral activity against HIV-1 RES056 infected in human MT4 cells assessed as reduction in virus induced cytotoxicity incubated for 5 to 7 days by MTT assay
Format: functional, organism-based
Settings: Human immunodeficiency virus 1, RES056, MT4
# pEC50 = -log10(concentration in molar units)

Request: Give its pEC50 value. Item: Cc1cc(C)cc(S(=O)(=O)c2c(C(=O)NC3CC4(CCN(Cc5n[nH]c(=O)n5C)C4)C3)[nH]c3ccc(Cl)cc23)c1 (centres undefined)
Response: 3.88

Request: I have this compound here, `O=C1Nc2ccc(Cl)cc2[C@@](C#CC2CC2)(C(F)(F)F)O1` , and I need its recorded pEC50.
Response: 6.98
